Biological target: hBRS-3 receptor (Homo sapiens)
Assay: Whole cell radioligand binding, hBRS-3 transfected Balb 3T3 cells
Ends that are not written are not given here.
metric: IC50

Query IC50 on hBRS-3 receptor (Homo sapiens) for NQWAVGHL-NH2 [Peptide 9, Bn(6-13)NH2] > 10 µM

====

Target: hNMB-receptor (Homo sapiens)
Test: Whole cell radioligand binding, hNMB-receptor transfected NCI-H1299 cells
metric: pIC50
Interpret pIC50 as the negative base-10 log of the concentration measured in mol/L.

compound	metric	measured
CCCCNC(=O)[C@H](CC(C)C)NC(=O)[C@H](Cc1c[nH]cn1)NC(=O)CNC(=O)[C@@H](NC(=O)[C@H](C)NC(=O)[C@H](Cc1c[nH]c2ccccc12)NC(=O)[C@H](CCC(N)=O)NC(=O)[C@H](N)Cc1ccccc1)C(C)C [Peptide 14, [D-Phe^6]Bn(6-13)Butylamide (BA)]	pIC50	5.75

Which pIC50 is listed for CSCC[C@H](NC(=O)[C@H](CC(C)C)NC(=O)[C@@H](Cc1ccccc1)NC(=O)CNC(=O)[C@@H](NC(=O)[C@H](C)NC(=O)[C@H](Cc1c[nH]c2ccccc12)NC(=O)[C@H](CCC(N)=O)NC(=O)[C@H](CC(N)=O)NC(=O)CNC(=O)[C@H](Cc1ccc(O)cc1)NC(=O)[C@H](CCCNC(=N)N)NC(=O)[C@H](CCC(N)=O)NC(=O)[C@@H]1CCC(=O)N1)C(C)C)C(N)=O [Peptide 2, [Tyr^4, D-Phe^12]Bn] ? 5.73

Thanks! And CC(Cc1c[nH]c2ccccc12)(NC(=O)Nc1ccc([N+](=O)[O-])cc1)C(=O)NCC1(c2ccccn2)CCCCC1 (stereo not shown) [Peptide 34, reference compound] ? 9.60

====

Molecular target: hNMB-receptor (Homo sapiens, UniProt P28336)
Sequence (P28336 whole entry): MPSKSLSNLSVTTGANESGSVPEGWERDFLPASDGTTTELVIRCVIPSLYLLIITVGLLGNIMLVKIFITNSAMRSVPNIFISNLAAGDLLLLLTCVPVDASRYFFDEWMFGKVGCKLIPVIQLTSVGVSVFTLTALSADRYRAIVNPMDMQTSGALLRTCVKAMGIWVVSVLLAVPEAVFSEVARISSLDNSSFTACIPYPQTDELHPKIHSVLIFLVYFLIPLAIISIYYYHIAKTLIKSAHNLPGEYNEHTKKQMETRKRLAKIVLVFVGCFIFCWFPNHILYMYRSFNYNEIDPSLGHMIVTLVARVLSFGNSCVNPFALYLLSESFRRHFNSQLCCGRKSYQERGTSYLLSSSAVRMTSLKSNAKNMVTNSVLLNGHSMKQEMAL
Assay: Whole cell radioligand binding, hNMB-receptor transfected Balb 3T3 cells
Settings: IC50 hNMB-R Balb-3T3, hNMB-receptor transfected Balb 3T3 cells; 125I-[D-Tyr0]NMB, 1 h, 22°C; mean ± S.E.
Ends that are not written are not given here.
metric: IC50

Which IC50 is listed for NQWAVGHL-NH2 [Peptide 9, Bn(6-13)NH2] ? > 10 µM

====

Below, each entry is listed with its recorded IC50.
Biological target: hBRS-3 receptor (Homo sapiens, UniProt P32247)
Sequence (P32247 whole entry): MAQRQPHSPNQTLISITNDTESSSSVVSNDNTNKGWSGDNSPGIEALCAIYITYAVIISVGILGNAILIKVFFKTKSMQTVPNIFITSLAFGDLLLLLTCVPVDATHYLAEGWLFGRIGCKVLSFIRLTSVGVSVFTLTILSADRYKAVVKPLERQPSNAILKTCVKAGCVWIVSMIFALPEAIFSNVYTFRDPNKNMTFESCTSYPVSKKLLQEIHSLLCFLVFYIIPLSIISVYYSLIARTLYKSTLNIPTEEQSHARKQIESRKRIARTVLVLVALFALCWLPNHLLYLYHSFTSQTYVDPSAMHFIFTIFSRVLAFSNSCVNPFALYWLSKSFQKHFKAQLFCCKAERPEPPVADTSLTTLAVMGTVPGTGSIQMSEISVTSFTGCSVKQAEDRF
Experiment: Whole cell radioligand binding, hBRS-3 transfected Balb 3T3 cells
Square brackets hold non-standard residues; d marks the D form. Peptide text beside a SMILES is read from it. pGlu = O=C1CC[C@@H](C(=O)O)N1; Nle = CCCC[C@H](N)C(=O)O; βAla = NCCC(=O)O

molecule	measurement-target	IC50
CC(C)C[C@H](NC(=O)[C@H](CC(C)C)NC(=O)[C@@H](Cc1ccccc1)NC(=O)CNC(=O)[C@@H](NC(=O)[C@H](C)NC(=O)[C@H](Cc1c[nH]c2ccccc12)NC(=O)[C@H](CCC(N)=O)NC(=O)[C@H](CC(N)=O)NC(=O)CNC(=O)[C@H](CC(C)C)NC(=O)[C@H](CCCNC(=N)N)NC(=O)[C@H](CCC(N)=O)NC(=O)[C@@H]1CCC(=O)N1)C(C)C)C(N)=O [Peptide 1, [D-Phe^12, Leu^14]Bn] ([pGlu]QRLGNQWAVG[dF]LL-NH2)	hBRS-3 receptor (Homo sapiens, UniProt P32247)	> 10 µM
CCCCCCCNC(=O)[C@H](CC(C)C)NC(=O)[C@H](Cc1c[nH]cn1)NC(=O)CNC(=O)[C@@H](NC(=O)[C@H](C)NC(=O)[C@H](Cc1c[nH]c2ccccc12)NC(=O)[C@H](CCC(N)=O)NC(=O)[C@H](N)Cc1ccccc1)C(C)C [Peptide 16, [D-Phe^6]Bn(6-13)Heptylamide]	hBRS-3 receptor (Homo sapiens, UniProt P32247)	> 10 µM
CCCNC(=O)[C@H](CC(C)C)NC(=O)[C@H](Cc1c[nH]cn1)NC(=O)CNC(=O)[C@@H](NC(=O)[C@H](C)NC(=O)[C@H](Cc1c[nH]c2ccccc12)NC(=O)[C@H](CCC(N)=O)NC(=O)[C@H](N)Cc1ccccc1)C(C)C [Peptide 11, [D-Phe^6-Bn](6-13)Propylamide (PA)]	hBRS-3 receptor (Homo sapiens, UniProt P32247)	1.91 µM
CCCCNC(=O)[C@H](CC(C)C)NC(=O)[C@H](Cc1c[nH]cn1)NC(=O)CNC(=O)[C@@H](NC(=O)[C@H](C)NC(=O)[C@H](Cc1c[nH]c2ccccc12)NC(=O)[C@H](CCC(N)=O)NC(=O)[C@H](N)Cc1ccccc1)C(C)C [Peptide 14, [D-Phe^6]Bn(6-13)Butylamide (BA)]	hBRS-3 receptor (Homo sapiens, UniProt P32247)	0.692 µM
COC(=O)[C@H](CC(C)C)NC(=O)[C@H](Cc1c[nH]cn1)NC(=O)CNC(=O)[C@@H](NC(=O)[C@H](C)NC(=O)[C@H](Cc1c[nH]c2ccccc12)NC(=O)[C@H](CCC(N)=O)NC(=O)[C@H](N)Cc1ccccc1)C(C)C [Peptide 17, [D-Phe^6]Bn-(6-13)Methyl ester (ME)]	hBRS-3 receptor (Homo sapiens, UniProt P32247)	5.29 µM
COc1ccc(C2(CNC(=O)C(C)(Cc3c[nH]c4ccccc34)NC(=O)Nc3ccc([N+](=O)[O-])cc3)CCCCC2)nc1 (centres unmarked) [Peptide 33, reference compound]	hBRS-3 receptor (Homo sapiens, UniProt P32247)	> 10 µM

Which IC50 is listed for CCCNC(=O)[C@H](CC(C)C)NC(=O)[C@H](Cc1c[nH]cn1)NC(=O)CNC(=O)[C@@H](NC(=O)[C@H](C)NC(=O)[C@H](Cc1c[nH]c2ccccc12)NC(=O)[C@H](CCC(N)=O)NC(=O)[C@H](N)Cc1ccc(O)cc1)C(C)C [Peptide 12, [D-Tyr^6]Bn-(6-13)Propylamide (PA)] ? 1.9 µM

Thanks! And CCCC[C@H](NC(=O)[C@H](Cc1ccccc1)NC(=O)[C@H](Cc1cnc[nH]1)NC(=O)CCNC(=O)[C@@H](NC(=O)[C@H](C)NC(=O)[C@H](Cc1c[nH]c2ccccc12)NC(=O)[C@H](CCC(N)=O)NC(=O)[C@H](N)Cc1ccc(O)cc1)C(C)C)C(N)=O [Peptide 35, reference compound] (H-[dY]QWAV[βAla]HF[Nle]-NH2) ? 0.00055 µM
